# target or test system: GORASP2, Q9H8Y8
# run description: holdup assay
# Set-up: key: below the threshold = too weak to quantify, mostly under pKd 3.1 to 4
# test settings: plain residues with an end cap or a label only (N-terminal biotin on a linker: ado-ado)
Cut-off 4 on pKd, inclusive. At or above means 1; below means -1.

Here are 3 binders together with their reported answers.
RFQQRMQTHV [KIRREL1, Q96J84] | 1
TNSRHGETTV [FZD2, Q14332] | 1
SLNANEVEWF [RNF130, Q86XS8] | 1

Say whether SFISKKEWYV [NECTIN1, Q15223] shows pKd of 4 or more.
1

Same read-out for EDLEDEWEVI [TECPR2, O15040] ?
1

Same read-out for PPGKHLVTEV [KCNA7, Q96RP8] ?
1

Same read-out for DGVNEKVSCV [HTR2A, P28223] ?
-1

Same read-out for MQHQRTHTRV [ZSCAN30, Q86W11] ?
1

Same read-out for KPGKGSETVV [FZD4, Q9ULV1] ?
1
